METHOD NOTES: P-glycoprotein substrates identified in KB-3-1 adenocarcinoma cell line, qHTS therapeutic library screen (AID 1346986); also: nearly all actives have a fitted effect of over 60% in size
TEST PARAMETERS: KB-3-1 parental cells viability, CellTiter-Glo, 72 h; series mostly up to 44.5 µM
Results filed as inconclusive are left out. Active and inactive are the calls of the source. Calls follow the shape of the dose curve; as a rule, active = well fitted inhibition curve with a large enough effect; inconclusive = small, poorly fitted or top-dose-only effect; inactive = no such curve, though single readings can be large or run the other way.
Respond with a class label; see active, inactive

Observe how each entry below is paired with its result.
Q: State the result this test recorded for "C#Cc1cccc(Nc2ncnc3cc4c(cc23)OCCOCCOCCO4)c1" .
Result: inactive

Q: Outcome? Nc1ncnc2c1nc(Cl)n2C1O[C@H](CO)[C@@H](O)[C@H]1O (stereo partly specified)
Result: active

Q: Answer briefly: the call reported for CC(C)C(N)C(=O)OCC(CO)OCn1cnc2c(=O)[nH]c(N)nc21 (stereo unspecified) in this assay.
Result: inactive

Q: Lab log entry: "O=C(NOCCO)c1ccc2cncn2c1Nc1ccc(I)cc1F" — outcome as called in the assay?
Result: inactive

Q: Record lookup: outcome of this test for "S=c1ssc2c1CCC2" ?
Result: inactive

Next:
Q: Record lookup: outcome of this test for CCCCCCCCCCCCCCCCOCCCOP(=O)(O)COC(CO)Cn1ccc(N)nc1=O (stereo unspecified) ?
Result: active
